As shown below, each of these molecules has a reported Ki value.
SYSTEM_NAME: UniProtKB P21554
ASSAY_METRIC: Ki (nM)

INSERT INTO assay_data (structure_string, lt_gt_eq, meas_value) VALUES
  ('COCCn1c2c(cc(C(=O)NCc3ccccc3)c1=O)CCCCCC2', '=', 1770),
  ('CCCCn1c2c(cc(C(=O)NCCc3ccc(N)cc3)c1=O)CCCCCC2', '=', 54),
  ('CCCCn1c2c(cc(C(=O)NCCc3ccccc3)c1=O)CCCC2', '=', 746),
  ('CCCCn1c(C)c(I)cc(C(=O)NCCc2ccccc2)c1=O', '=', 1250),
  ('CCCCn1c2c(cc(C(=O)NCCc3ccc(O)cc3)c1=O)CCCCCC2', '=', 91),
  ('CCCCn1c2c(cc(C(=O)NCc3ccccc3)c1=O)CCCC2', '=', 2850),
  ('CCCCn1c2c(cc(C(=O)NCCc3ccccc3)c1=O)CCCCCC2', '=', 908),
  ('CCSC(=O)N1CCSC1=Nc1ccccc1C(C)C', '>', 5000),
  ('CCCCn1c2c(cc(C(=O)NCCc3ccccc3)c1=O)CCC2', '=', 1500);

###

As shown below, each of these molecules has a reported IC50 value.
SYSTEM_NAME: human CB1R (Homo sapiens)
Construct: expressed in transfected cells; host or cells: CHO cells
Sequence (P21554 whole entry): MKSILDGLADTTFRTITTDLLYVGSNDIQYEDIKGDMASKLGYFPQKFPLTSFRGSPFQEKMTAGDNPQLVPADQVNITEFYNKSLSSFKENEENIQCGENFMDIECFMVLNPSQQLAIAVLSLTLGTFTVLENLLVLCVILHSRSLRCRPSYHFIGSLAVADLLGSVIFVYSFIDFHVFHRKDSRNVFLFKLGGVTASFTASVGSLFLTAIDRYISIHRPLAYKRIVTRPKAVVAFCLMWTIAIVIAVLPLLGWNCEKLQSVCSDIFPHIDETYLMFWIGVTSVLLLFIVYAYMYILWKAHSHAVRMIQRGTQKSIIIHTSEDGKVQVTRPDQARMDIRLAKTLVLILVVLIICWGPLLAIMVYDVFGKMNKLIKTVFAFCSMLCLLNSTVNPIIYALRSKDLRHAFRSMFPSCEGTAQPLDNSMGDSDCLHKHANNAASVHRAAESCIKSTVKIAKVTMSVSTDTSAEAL
ASSAY_DETAILS: cell-based
EXPERIMENTAL_PARAMETERS: CHO cells expressing human CB1R, forskolin-stimulated cAMP synthesis; read-out: CB1 receptor IC50
ASSAY_METRIC: IC50 (nM)

INSERT INTO results (molecule, meas_value) VALUES
  ('Cc1cc(C(=O)NC2CCCc3ccccc32)c(=O)n(CC2CCCCC2)c1C (stereo not shown)', 0.6),
  ('CCCCn1c(C)c(C)cc(C(=O)NC(C)(C)c2ccccc2)c1=O', 1.2),
  ('CCC(C)CNC(=O)c1cc(C)c(C)n(CC2CCCCC2)c1=O (stereo not shown)', 7.8),
  ('CCCCn1c2c(cc(C(=O)Nc3ccccc3C(F)(F)F)c1=O)CCCCCC2', 6.3),
  ('CCCCn1c2c(cc(C(=O)N[C@H](CC)c3ccccc3)c1=O)CCCCCC2', 2.4),
  ('Cc1cc(C(=O)NCC(C)(C)C)c(=O)n(CC2CCCCC2)c1C', 7.5),
  ('CCCCn1c2c(cc(C(=O)NC(C)(C)c3ccccc3)c1=O)COCC2', 1.8),
  ('CCCCn1c2c(cc(C(=O)N[C@@H](CC)c3ccccc3)c1=O)CCCCCC2', 6.1),
  ('CCCCn1c2c(cc(C(=O)NCC(C)(C)C)c1=O)CCCCCC2', 3.5),
  ('CCCCn1c2c(cc(C(=O)N[C@H](CF)c3ccccc3)c1=O)CCCCCC2', 9.4),
  ('CCCCn1c2c(cc(C(=O)NC(=O)c3c(F)cccc3F)c1=O)CCCCCC2', 1.2),
  ('CCCCn1c(-c2ccccc2)c(C)cc(C(=O)NC(C)(C)c2ccccc2)c1=O', 0.7),
  ('CCCCn1c2c(cc(C(=O)NC(C)(C)c3ccccc3)c1=O)[C@@H]1CC[C@H]2C1', 0.3),
  ('Cc1c(C)c(C)n(CC2CCCCC2)c(=O)c1C(=O)NCc1ccccc1', 2.7),
  ('CCCCn1c2c(cc(C(=O)N[C@H](C)C3CCCCC3)c1=O)CCCCCC2', 2),
  ('CCCCn1c2c(cc(NC(=O)c3ccccc3Cl)c1=O)CCCCCC2', 1.6);

###

SYSTEM_NAME: mouse CB2 receptor (Mus musculus, UniProt P47936)
Construct: The membrane fractions of mouse brain and spleen that abundantly express CB1 and CB2 receptor, respectively; from tissue; host or cells: mouse spleen membrane fraction (C57BL/6 J)
Sequence (P47936 whole entry): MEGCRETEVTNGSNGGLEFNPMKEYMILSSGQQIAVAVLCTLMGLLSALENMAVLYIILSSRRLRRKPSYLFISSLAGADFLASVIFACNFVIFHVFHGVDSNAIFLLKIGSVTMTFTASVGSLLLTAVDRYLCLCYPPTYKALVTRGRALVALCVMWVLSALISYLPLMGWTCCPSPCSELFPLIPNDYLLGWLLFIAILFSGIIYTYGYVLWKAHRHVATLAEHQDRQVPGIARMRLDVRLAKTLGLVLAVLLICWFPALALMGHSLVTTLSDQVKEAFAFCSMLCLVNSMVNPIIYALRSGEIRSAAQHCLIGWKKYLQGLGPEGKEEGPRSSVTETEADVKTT
ASSAY_DETAILS: Binding inhibitory activity to mouse cannabinoid receptors, spleen membrane fraction
Parameters: species or system C57BL/6 J mice
pKi: −log10 of the molar value.
ASSAY_METRIC: pKi

INSERT INTO results (compound, system_name, assay_metric, meas_value) VALUES
  ('C=CCSC(=S)N1CC2(CCCCC2)CSC1=Nc1ccccc1OC [II-86]', 'mouse CB2 receptor (Mus musculus, UniProt P47936)', 'pKi', 8.96);

###

Values of Ki reported for Human cannabinoid receptor CB2R (Homo sapiens) appear below.
ASSAY_METRIC: Ki (nM)

INSERT INTO measurements (compound, system_name, assay_metric, meas_value) VALUES
  ('CCCCn1c2c(cc(C(=O)NCCc3ccccc3)c1=O)CCCCCC2 [Compound 4-102]', 'Human cannabinoid receptor CB2R (Homo sapiens)', 'Ki', 1.6),
  ('CCCCn1c2c(cc(C(=O)NCCc3ccccc3)c1=O)CCC2 [Compound 4-052]', 'Human cannabinoid receptor CB2R (Homo sapiens)', 'Ki', 24),
  ('O=C(NCc1ccccc1)c1cc2c(n(Cc3ccncc3)c1=O)CCCCCC2 [Compound 4-310]', 'Human cannabinoid receptor CB2R (Homo sapiens)', 'Ki', 9),
  ('CCCCn1c(C)c(C)cc(NC(=O)c2ccccc2C)c1=O [Compound 5-006]', 'Human cannabinoid receptor CB2R (Homo sapiens)', 'Ki', 14),
  ('CCCCn1c(C)c(C)cc(Oc2nc3ccccc3o2)c1=S [Compound 2-004]', 'Human cannabinoid receptor CB2R (Homo sapiens)', 'Ki', 101),
  ('COCCn1c2c(cc(C(=O)NCc3ccccc3)c1=O)CCCCCC2 [Compound 4-301]', 'Human cannabinoid receptor CB2R (Homo sapiens)', 'Ki', 8);

###

As shown below, each of these molecules has a reported melting point value.
ASSAY_METRIC: melting point

INSERT INTO assay_data (molecule, assay_metric, meas_value) VALUES
  ('CSC(=S)N1CC2(CCOCC2)CSC1=Nc1ccccc1C(C)C [II-93]', 'melting point', '127 to 128 °C'),
  ('COCC(=O)N1CC(C)(C)CSC1=Nc1ccccc1C(C)C [Compound I-93]', 'melting point', '76 to 78 °C'),
  ('CSC(=S)N1CC(C)(C)CSC1=Nc1ccc(C)c(C)c1 [Compound I-74]', 'melting point', '126 to 128 °C'),
  ('CCc1ccccc1N=C1SCC(C)(C)CN1C(=S)SC [Compound I-56]', 'melting point', '107 to 109 °C'),
  ('CSC(=S)N1CC(C)(C)CSC1=Nc1ccccc1SC [Compound I-62]', 'melting point', '137 to 139 °C'),
  ('CCCCn1c(C)c(C)cc(NC(=O)OCc2ccccc2)c1=O', 'melting point', '65 to 66 °C'),
  ('CCCc1ccccc1N=C1SCC(C)(C)CN1C(=O)SC [Compound I-49]', 'melting point', '64 to 66 °C'),
  ('CCCCn1c(C)c(C)cc(NC(=O)Nc2ccccc2Br)c1=O', 'melting point', '154 to 155 °C'),
  ('CCn1c(C)c(C)cc(C(=O)NCc2ccccc2)c1=O', 'melting point', '117 °C'),
  ('CCCCn1c(C)c(C)cc(NC(=O)c2ccc(F)cc2)c1=O', 'melting point', '129 to 130 °C'),
  ('CSC(=O)N1CC(C)(C)CSC1=Nc1cccc(C(C)C)c1 [Compound I-52]', 'melting point', '88 to 90 °C'),
  ('CCC(C)c1ccccc1N=C1SCC(C)(C)CN1C(=O)SC (stereo not shown) [Compound I-51]', 'melting point', '53 to 56 °C'),
  ('COc1ccccc1N=C1SCC(C)(C)CN1C(=S)SC [Compound I-60]', 'melting point', '128 to 130 °C');

###

As shown below, each of these molecules has a reported Ki value.
SYSTEM_NAME: Human cannabinoid receptor CB2R (Homo sapiens)
Sequence (P34972 whole entry): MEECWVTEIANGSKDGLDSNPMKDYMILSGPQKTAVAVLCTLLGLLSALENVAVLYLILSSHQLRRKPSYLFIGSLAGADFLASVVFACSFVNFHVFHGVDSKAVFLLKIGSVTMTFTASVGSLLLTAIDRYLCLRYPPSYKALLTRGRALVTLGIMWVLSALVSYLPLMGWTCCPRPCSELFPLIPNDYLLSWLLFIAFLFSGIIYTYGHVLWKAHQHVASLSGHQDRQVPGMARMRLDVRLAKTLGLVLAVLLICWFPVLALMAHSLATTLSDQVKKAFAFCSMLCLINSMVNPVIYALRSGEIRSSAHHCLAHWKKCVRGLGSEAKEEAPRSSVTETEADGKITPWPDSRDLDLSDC
ASSAY_METRIC: Ki (nM)

INSERT INTO results (molecule, assay_metric, uom, meas_value) VALUES
  ('CCCCn1c2c(cc(C(=O)NCc3ccccc3)c1=O)CCCC2 [Compound 4-001]', 'Ki', 'nM', 28),
  ('CCCCn1c2c(cc(C(=O)NCCc3ccccc3)c1=O)CCCC2 [Compound 4-002]', 'Ki', 'nM', 17),
  ('CCCCn1c2c(cc(C(=O)NCc3ccccc3)c1=O)CCCCCC2 [Compound 4-101]', 'Ki', 'nM', 1.5),
  ('CCCCn1c2c(cc(C(=O)NCCc3ccc(O)cc3)c1=O)CCCCCC2 [Compound 4-105]', 'Ki', 'nM', 2.1),
  ('CCCCn1c(C)c(C)cc(NC(=O)c2ccccc2Cl)c1=O [Compound 5-005]', 'Ki', 'nM', 16),
  ('COCCn1c2c(cc(C(=O)NCCc3ccccc3)c1=O)CCCCCC2 [Compound 4-302]', 'Ki', 'nM', 10),
  ('CCCCn1c(C)c(C)cc(C(=O)NCCc2ccccc2)c1=O [Compound 3-010]', 'Ki', 'nM', 57),
  ('CCCCn1c(C)c(I)cc(C(=O)NCCc2ccccc2)c1=O [Compound 3-038]', 'Ki', 'nM', 12),
  ('CCCCn1c2c(cc(C(=O)NCCc3ccc(N)cc3)c1=O)CCCCCC2 [Compound 4-104]', 'Ki', 'nM', 6);
